Some molecules, each annotated with its measured melting point.

Input line: What measured melting point goes with NC(=O)CCC1=NNC(=O)C1=Cc1c[nH]c2ccccc12 ?
Output line: 280 to 281 °C

Input line: What value of melting point has been reported for the following molecule? O=C1NN=C(Nc2ccccc2)C1=Cc1c[nH]c2ncccc12
Output line: 249 to 252 °C

Input line: What does the data say about its melting point? Entry: CCc1c(C)[nH]c(C=C2C(=O)NN=C2C2CCOC2)c1C (stereo not shown)
Output line: 163 to 165 °C

* * *

# melting point per entry

Solved entries (count: 5):
# MOLECULE, melting point
measured = [
    ("Cc1cccc2c(C=C3C(=O)NN=C3OC(C)C)cn(C)c12 [Example 294]", "245 to 247 °C"),
    ("O=C1NN=C(Cc2ccccc2)C1=Cc1cn(CCCCO)c2ncccc12 [Example 334]", "176 to 179 °C"),
    ("NC1=NNC(=O)C1=Cc1c[nH]c2ncccc12 [Example 337]", "> 300 °C"),
    ("O=C1NN=C(Cc2ccccc2)C1=Cc1ccc[nH]1 [Example 2]", "182 to 184 °C"),
    ("Cc1[nH]c(C=C2C(=O)NN=C2C2CC2)c(C)c1CN [Example 132]", "217 to 219 °C"),
]

Input line: Need melting point, item COc1ccc(NC(=O)CC2=NNC(=O)C2=Cc2c[nH]c3ccccc23)cc1 [Example 255]
Output line: > 300 °C

Input line: Look at this molecule and give its reported melting point. Cc1[nH]c(C=C2C(=O)NN=C2OC(C)C)c(C)c1C(=O)O [Example 83]
Output line: > 300 °C

Input line: Sample COc1ccc(CCC2=NNC(=O)C2=Cc2c[nH]c3ccccc23)cc1 [Example 231] — what was its melting point?
Output line: 266 to 268 °C

Input line: If you can, please state the reported melting point value of O=C1NN=C(Cc2ccccc2)C1=Cc1cn(CCCCO)c2ccccc12 [Example 211] .
Output line: 217 to 220 °C

* * *

MEASUREMENT KIND: melting point

Solved entries:
# COMPOUND, melting point
measured = [
    ("O=C1NN=C(C2CCC2)C1=Cc1c[nH]c2ccccc12 [Example 259]", "> 300 °C"),
    ("Cc1[nH]c(C=C2C(=O)NN=C2c2cnccn2)c(C)c1CN1CCC(O)CC1 [Example 178]", "255 to 257 °C"),
    ("O=C1NN=C(CCc2ccccc2)C1=Cc1c[nH]c2ncccc12 [Example 357]", "317 to 319 °C"),
    ("O=C1NN=C(Cc2ccc(O)cc2)C1=Cc1c[nH]c2ccccc12 [Example 228]", "295 to 300 °C"),
    ("O=C1NN=C(C2CC2)C1=Cc1ncc[nH]1 [Example 365]", "264 to 266 °C"),
]

Note: attention shifts to another entry.
Input line: # get_value(readout='melting point', item= Cc1[nH]c(C=C2C(=O)NN=C2c2cnccn2)c(C(C)C)c1CN(C)C [Example 199] )
Output line: 227 °C

* * *

Some molecules, each annotated with its measured melting point.

Input line: # lookup: melting point of O=C1NN=C(c2nc3ccccc3s2)C1=Cc1c[nH]c2ccccc12 [Example 268]
Output line: > 300 °C

Input line: Entry under review: Cc1cc(C2=NNC(=O)C2=Cc2[nH]c(C)c(CN(C)C)c2C)no1 [Example 177] . Reported melting point?
Output line: 242 to 244 °C
